measurement-target: human ether-à-go-go-related gene (hERG) potassium channel (human, UniProt Q12809);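 also: peak tail current of the secondary pulse compared with the same well before compound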
Sequence (Q12809 whole entry, looked up): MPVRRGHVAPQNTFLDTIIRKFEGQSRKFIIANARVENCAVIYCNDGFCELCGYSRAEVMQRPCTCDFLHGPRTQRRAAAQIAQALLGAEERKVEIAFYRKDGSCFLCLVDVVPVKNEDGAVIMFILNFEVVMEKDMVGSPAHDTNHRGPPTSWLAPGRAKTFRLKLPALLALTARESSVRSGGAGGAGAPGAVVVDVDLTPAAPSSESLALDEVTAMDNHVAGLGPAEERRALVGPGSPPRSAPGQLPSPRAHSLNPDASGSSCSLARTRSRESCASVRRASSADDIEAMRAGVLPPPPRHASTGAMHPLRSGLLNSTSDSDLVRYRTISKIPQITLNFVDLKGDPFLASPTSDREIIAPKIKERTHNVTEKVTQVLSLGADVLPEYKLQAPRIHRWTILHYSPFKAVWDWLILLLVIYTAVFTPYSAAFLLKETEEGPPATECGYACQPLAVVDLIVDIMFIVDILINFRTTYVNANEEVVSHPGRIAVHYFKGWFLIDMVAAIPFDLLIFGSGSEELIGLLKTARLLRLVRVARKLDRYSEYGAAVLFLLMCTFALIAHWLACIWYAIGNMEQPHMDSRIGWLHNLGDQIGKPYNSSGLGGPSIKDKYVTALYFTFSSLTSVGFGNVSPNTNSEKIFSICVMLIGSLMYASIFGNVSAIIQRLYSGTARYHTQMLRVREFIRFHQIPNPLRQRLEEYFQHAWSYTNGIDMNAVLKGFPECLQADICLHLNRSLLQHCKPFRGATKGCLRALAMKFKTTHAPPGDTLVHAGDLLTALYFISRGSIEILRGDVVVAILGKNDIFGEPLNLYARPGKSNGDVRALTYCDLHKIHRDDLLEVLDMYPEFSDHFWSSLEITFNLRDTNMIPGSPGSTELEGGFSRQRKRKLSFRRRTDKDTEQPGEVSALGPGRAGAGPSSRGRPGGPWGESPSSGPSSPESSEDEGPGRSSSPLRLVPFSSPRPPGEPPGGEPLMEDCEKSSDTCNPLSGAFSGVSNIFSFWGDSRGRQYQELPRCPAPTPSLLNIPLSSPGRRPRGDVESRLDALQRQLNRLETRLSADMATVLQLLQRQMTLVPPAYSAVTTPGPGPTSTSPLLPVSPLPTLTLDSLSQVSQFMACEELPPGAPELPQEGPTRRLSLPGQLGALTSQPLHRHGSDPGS
protocol-notes: primary screen, population patch clamp on CHO cells stably expressing hERG; higher = less effect of the substance
Screen size: about 310,000 compounds; about 14,000 (4.5%) showed an effect of 50% or more. Effects have a minus sign here. Many of the other results were omitted from the sample, so strong results are more common in it than they were.
quantity-measured: hERG current change (%, negative = inhibition) at 10uM (%)

>>> result_value("CC(C)CNC(=O)C(=O)NCCCN1CCOCC1")
-61.6
>>> result_value("O=C(NCCCN1CCOCC1)/C(=C/c1ccco1)NC(=O)c1ccccc1")
1.44
>>> result_value("O=C1C2C3CCCC3=C3CCCC3C2C(=O)N1c1ccccc1 (stereo not drawn)")
1.8
>>> result_value("COc1ccc(CNC(=O)[C@H](C)NC(=O)N2CCn3c2nc2ccccc23)cc1")
-57.7
>>> result_value("Cc1ccc(CN2CCN(Cc3c(C)nn(-c4ccc(F)cc4)c3C)CC2CCO)o1 (stereo not drawn)")
-34.6
>>> result_value("CCN1CCN(c2ccc(S(=O)(=O)N3CCCCC3)cc2NC(=O)c2sccc2C)CC1")
-71.4
>>> result_value("CC(C)c1ccc(/C=C(\\NC(=O)c2ccccc2)C(=O)NCCN2CCOCC2)cc1")
-61
>>> result_value("C[C@H](NC(=O)N1CCn2c1nc1ccccc12)C(=O)NCc1ccc(F)cc1")
-29.6
>>> result_value("CCCSc1nc2sc3c(c2c(=O)n1CC)CC(C)(C)OC3")
3.41
>>> result_value("CCN(CC)S(=O)(=O)c1ccc(OC)c(NC(=O)CC2CCCC2)c1")
-10.8
>>> result_value("CSc1ccc(NC(=O)CC(C)=O)cc1")
-21.3
>>> result_value("CCOC(=O)N1CCN(c2c(NCc3ccc(Cl)cc3)c(=O)c2=O)CC1")
-17
>>> result_value("O=C(NCCN1CCOCC1)/C(=C\\c1ccccc1Cl)NC(=O)c1ccccc1")
-16.2
>>> result_value("CCOC(=O)N1CCC(Nc2c(NCCN3CCN(c4cccc(Cl)c4)CC3)c(=O)c2=O)CC1")
-0.879
>>> result_value("OCCC1CN(Cc2cnn(-c3ccc(F)cc3)c2)CCN1Cc1ccsc1 (stereo not drawn)")
-65.7
>>> result_value("CCOC(=O)N1CCC(Nc2c(N3CCN(c4cc(Cl)ccc4C)CC3)c(=O)c2=O)CC1")
-80.4
>>> result_value("COC(=O)c1sccc1NC(=O)Nc1ccccc1OC")
-41.4
>>> result_value("CCOC(=O)N1CCC(NCCNC(=O)c2ccc(Cl)cc2)CC1")
-57.8
>>> result_value("COC(=O)C1CCN(C(=O)c2ccccc2NC(C)=O)CC1")
16.8
>>> result_value("Cc1ccc(CN2CCN(Cc3cnc(C)s3)CC2CCO)o1 (stereo not drawn)")
-1.95
>>> result_value("CCCCOc1ccc(C(=S)N2CCC(C(N)=O)CC2)cc1")
6.67
>>> result_value("OCCC1CN(Cc2cnn(-c3ccccc3Cl)c2)CCN1Cc1ccsc1 (stereo not drawn)")
-11.7
>>> result_value("COCCCNC(=S)Nc1cccc(S(=O)(=O)NC2=NCCC2)c1")
36.7
>>> result_value("CCn1cc(CN2CCN(Cc3ccsc3)C(CCO)C2)cn1 (stereo not drawn)")
-3.26
>>> result_value("Cl.OC(CN1C2=NCCCN2c2ccccc21)c1ccc(Br)cc1 (stereo not drawn)")
-83.9
>>> result_value("COc1ccccc1N(CC(O)CN1CCOCC1)S(=O)(=O)c1ccccc1 (stereo not drawn)")
12.7
>>> result_value("COc1ccc(N2CCN(c3nc4cc(C)ccc4cc3C=O)CC2)cc1")
16.6
>>> result_value("CC(C)NC(=O)C(=O)NCCCN1CCOCC1")
25.1
>>> result_value("Cc1ccc(C)c(C(=O)CCC(=O)Nc2cccnc2)c1")
7.26
>>> result_value("O=C1CC(NNc2nc3ccccc3s2)C(=O)N1c1ccc(F)cc1 (stereo not drawn)")
3.25
>>> result_value("CCC(=O)Nc1cc2nn(-c3ccc(OC)cc3)nc2cc1C")
0.0727
>>> result_value("COc1nc(N)c(S(=O)(=O)c2ccccc2)cc1C#N")
-19
>>> result_value("CCOC(=O)N1CCC(N2CCN(c3ccccc3)CC2)CC1.Cl")
-21.4
>>> result_value("Cc1ccc(CN2CCN(Cc3cnn(-c4ccc(Cl)cc4)c3)CC2CCO)o1 (stereo not drawn)")
-69.8
>>> result_value("CCOC(=O)N1CCC(NCCNC(=O)c2ccc(F)cc2)CC1.Cl")
-25.2
>>> result_value("CCOC(=O)N1CCN(c2c(NC3CCN(Cc4ccccc4)CC3)c(=O)c2=O)CC1")
7.18
>>> result_value("CCOC(=O)N1CCC(NC(=O)c2ccc(Cl)cc2)CC1")
-14.5
>>> result_value("CCOc1ccccc1NC(=O)Nc1ccsc1C(=O)OC")
-62
>>> result_value("COc1ccc(NC(=O)COC(=O)CC2CCCC2)cc1Cl")
-1.21
>>> result_value("Cl.OCCN1C2=NCCCN2c2ccccc21")
5.78
>>> result_value("CC(C)c1ccc(/C=C(\\NC(=O)c2ccccc2)C(=O)NCCCN2CCOCC2)cc1")
-71.4
>>> result_value("Cc1ccc(S(=O)(=O)N(C)C)cc1NC(=O)COC(=O)CC1CCCC1")
-74.2

These data points were gathered from paper PMC4336329.
